test system: Klebsiella pneumoniae; test: Expected efficacy of antibiotic agents; conditions: expected efficacy against Klebsiella pneumoniae

molecule	Efficacy
O=C(O)c1cn(C2CC2)c2cc(N3CCNCC3)c(F)cc2c1=O [Ciprofloxacin, ciprofloxacin]	yes
CC[C@H]1OC(=O)[C@H](C)[C@@H](O[C@H]2C[C@@](C)(OC)[C@@H](O)[C@H](C)O2)[C@H](C)[C@@H](O[C@@H]2O[C@H](C)C[C@H](N(C)C)[C@H]2O)[C@](C)(O)C[C@@H](C)CN(C)[C@H](C)[C@@H](O)[C@]1(C)O [Azithromycin]	no
CO/N=C(\C(=O)N[C@@H]1C(=O)N2C(C(=O)O)=C(CSc3nc(=O)c(=O)[nH]n3C)CS[C@H]12)c1csc(N)n1 [Ceftriaxone, ceftriaxone]	yes
NC[C@H]1O[C@H](O[C@H]2[C@H](O)[C@@H](O[C@H]3O[C@H](CO)[C@@H](O)[C@H](N)[C@H]3O)[C@H](N)C[C@@H]2N)[C@H](N)C[C@@H]1O [Tobramycin, tobramycin]	yes
CN[C@H](CC(C)C)C(=O)N[C@H]1C(=O)N[C@@H](CC(N)=O)C(=O)N[C@H]2C(=O)N[C@H]3C(=O)N[C@H](C(=O)N[C@H](C(=O)O)c4cc(O)cc(O)c4-c4cc3ccc4O)[C@H](O)c3ccc(c(Cl)c3)Oc3cc2cc(c3O[C@@H]2O[C@H](CO)[C@@H](O)[C@H](O)[C@H]2O[C@H]2C[C@](C)(N)[C@H](O)[C@H](C)O2)Oc2ccc(cc2Cl)[C@H]1O [Vancomycin]	no
C/C(=C\C(=O)OCCCCCCCCC(=O)O)C[C@@H]1OC[C@H](C[C@@H]2O[C@H]2[C@@H](C)[C@H](C)O)[C@@H](O)[C@H]1O [Bactroban]	no
